Data provenance: ChEMBL document CHEMBL1136459

Test system: Staphylococcus aureus
Experiment: In vitro antibacterial activity against linezolid-resistant Staphylococcus aureus ATCC 29213 (LRSA).
Format: functional
QUANTITY_NAME: MIC (µg/mL)
Give your result in µg/mL as a bare value.

// known answers, use as guide
>  <COMPOUND>
O=C(/C=C/c1cccnc1)NC[C@H]1CN(c2ccc(C3CCS(=O)(=O)CC3)c(F)c2)C(=O)O1

>  <MIC, µg/mL>
32

$$$$
>  <COMPOUND>
CC(=O)NC[C@H]1CN(c2ccc(C3CC[S+]([O-])CC3)c(F)c2)C(=O)O1 (stereo not given in full)

>  <MIC, µg/mL>
64

$$$$
>  <COMPOUND>
O=C1O[C@@H](CNC(=O)C(F)(F)F)CN1c1ccc(N2CCS(=O)(=O)CC2)c(F)c1

>  <MIC, µg/mL>
16

$$$$
>  <COMPOUND>
CC(=O)NC[C@H]1CN(c2ccc(N3CCS(=O)(=O)CC3)c(F)c2)C(=O)O1

>  <MIC, µg/mL>
64

$$$$
>  <COMPOUND>
CC(=O)Oc1ccc(C(=O)NC[C@H]2CN(c3ccc(C4CC[S+]([O-])CC4)c(F)c3)C(=O)O2)cc1 (stereo not given in full)

>  <MIC, µg/mL>
64

$$$$
>  <COMPOUND>
O=C(/C=C/c1ccc(Cl)cc1)NC[C@H]1CN(c2ccc(N3CC[S+]([O-])CC3)c(F)c2)C(=O)O1

>  <MIC, µg/mL>
8

$$$$
>  <COMPOUND>
O=C1O[C@@H](CNC(=O)C(F)(F)F)CN1c1ccc(C2CCS(=O)(=O)CC2)c(F)c1

>  <MIC, µg/mL>
64

$$$$
>  <COMPOUND>
CC(=O)NC[C@H]1CN(c2ccc(N3CCOCC3)c(F)c2)C(=O)O1

>  <MIC, µg/mL>
64

$$$$
>  <COMPOUND>
O=C(NC[C@H]1CN(c2ccc(C3CCS(=O)(=O)CC3)c(F)c2)C(=O)O1)C(F)F

>  <MIC, µg/mL>
32

$$$$
>  <COMPOUND>
O=C(NC[C@H]1CN(c2ccc(C3CC[S+]([O-])CC3)c(F)c2)C(=O)O1)C(F)F (stereo not given in full)

>  <MIC, µg/mL>
16

$$$$

I would be grateful if you could share the reported MIC for O=C(CF)NC[C@H]1CN(c2ccc(C3CCS(=O)(=O)CC3)c(F)c2)C(=O)O1 .
64

Any idea what MIC was measured for CO/N=C/c1ccc(/C=C/C(=O)NC[C@H]2CN(c3ccc(N4CC[S+]([O-])CC4)c(F)c3)C(=O)O2)cc1 ?
64

Would you kindly share the measured MIC for CC(=O)NC[C@H]1CN(c2ccc(C3CCS(=O)(=O)CC3)c(F)c2)C(=O)O1 ?
32
